Tested on: SW1271 complex spheroids with HUVEC/MSC, growth, % test/control
Test: Anticancer human tumor SW1271 cell line growth inhibition [AhR]; active means viability on the fitted dose curve at most 10% of control; inactive means the rest;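 further: spheroids exposed to agents for 7 days before readout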
Conditions: second compound 3.16 µM; first compound 10 µM
Outcome codes: 1 = active, -1 = inactive

COMPOUND | TARGET | LABEL CLASS
CC(C)c1c(-c2ccccc2)nc2c(C#N)c[nH]n2c1=O + Cc1ccccc1N=Nc1ccc(NC(=O)c2ccnn2C)c(C)c1 | SW1271 complex spheroids with HUVEC/MSC, growth, % test/control | -1
COc1cc(Nc2ncc3c(n2)-c2ccc(Cl)cc2C(c2c(F)cccc2OC)=NC3)ccc1C(=O)O + Cc1cncc(-c2nc(NCCc3c[nH]c4ccccc34)c3ncn(C(C)C)c3n2)c1 | SW1271 complex spheroids with HUVEC/MSC, growth, % test/control | -1
COc1cc(Nc2ncc3c(n2)-c2ccc(Cl)cc2C(c2c(F)cccc2OC)=NC3)ccc1C(=O)O + CC(CO)NC(=O)c1cc(-c2ccc(Cl)cc2)nn(-c2cnn(C)c2)c1=O | SW1271 complex spheroids with HUVEC/MSC, growth, % test/control | -1
COc1cc(Nc2ncc3c(n2)-c2ccc(Cl)cc2C(c2c(F)cccc2OC)=NC3)ccc1C(=O)O + Cc1ccccc1N=Nc1ccc(NC(=O)c2ccnn2C)c(C)c1 | SW1271 complex spheroids with HUVEC/MSC, growth, % test/control | -1
COc1cccc2c1C(=O)c1c(O)c3c(c(O)c1C2=O)CC(O)(C(=O)CO)CC3OC1CC(N)C(O)C(C)O1 (stereo unspecified) + CC(CO)NC(=O)c1cc(-c2ccc(Cl)cc2)nn(-c2cnn(C)c2)c1=O | SW1271 complex spheroids with HUVEC/MSC, growth, % test/control | 1
Nc1ccccc1NC(=O)c1ccc(CNC(=O)OCc2cccnc2)cc1 + Cc1cncc(-c2nc(NCCc3c[nH]c4ccccc34)c3ncn(C(C)C)c3n2)c1 | SW1271 complex spheroids with HUVEC/MSC, growth, % test/control | -1
O=C(c1cc(Cc2n[nH]c(=O)c3ccccc23)ccc1F)N1CCN(C(=O)C2CC2)CC1 + Cc1ccccc1N=Nc1ccc(NC(=O)c2ccnn2C)c(C)c1 | SW1271 complex spheroids with HUVEC/MSC, growth, % test/control | -1
O=C(c1cc(Cc2n[nH]c(=O)c3ccccc23)ccc1F)N1CCN(C(=O)C2CC2)CC1 + Cc1cncc(-c2nc(NCCc3c[nH]c4ccccc34)c3ncn(C(C)C)c3n2)c1 | SW1271 complex spheroids with HUVEC/MSC, growth, % test/control | -1
CC(C)c1c(-c2ccccc2)nc2c(C#N)c[nH]n2c1=O + Cc1cncc(-c2nc(NCCc3c[nH]c4ccccc34)c3ncn(C(C)C)c3n2)c1 | SW1271 complex spheroids with HUVEC/MSC, growth, % test/control | -1
COc1cccc2c1C(=O)c1c(O)c3c(c(O)c1C2=O)CC(O)(C(=O)CO)CC3OC1CC(N)C(O)C(C)O1 (stereo unspecified) + Cc1cncc(-c2nc(NCCc3c[nH]c4ccccc34)c3ncn(C(C)C)c3n2)c1 | SW1271 complex spheroids with HUVEC/MSC, growth, % test/control | 1
CC1COCCN1c1cc(C2(S(C)(=N)=O)CC2)nc(-c2ccnc3[nH]ccc23)n1 (stereo unspecified) + Cc1ccccc1N=Nc1ccc(NC(=O)c2ccnn2C)c(C)c1 | SW1271 complex spheroids with HUVEC/MSC, growth, % test/control | -1
